target: PI 3-kinase alpha (Homo sapiens, UniProt P42336); assay: Kinase Glo Luminescent Kinase Assay (Kglo), assay A; format: biochemical; conditions: read-out: Assay A PI3Kα IC50
Sequence (P42336 whole entry): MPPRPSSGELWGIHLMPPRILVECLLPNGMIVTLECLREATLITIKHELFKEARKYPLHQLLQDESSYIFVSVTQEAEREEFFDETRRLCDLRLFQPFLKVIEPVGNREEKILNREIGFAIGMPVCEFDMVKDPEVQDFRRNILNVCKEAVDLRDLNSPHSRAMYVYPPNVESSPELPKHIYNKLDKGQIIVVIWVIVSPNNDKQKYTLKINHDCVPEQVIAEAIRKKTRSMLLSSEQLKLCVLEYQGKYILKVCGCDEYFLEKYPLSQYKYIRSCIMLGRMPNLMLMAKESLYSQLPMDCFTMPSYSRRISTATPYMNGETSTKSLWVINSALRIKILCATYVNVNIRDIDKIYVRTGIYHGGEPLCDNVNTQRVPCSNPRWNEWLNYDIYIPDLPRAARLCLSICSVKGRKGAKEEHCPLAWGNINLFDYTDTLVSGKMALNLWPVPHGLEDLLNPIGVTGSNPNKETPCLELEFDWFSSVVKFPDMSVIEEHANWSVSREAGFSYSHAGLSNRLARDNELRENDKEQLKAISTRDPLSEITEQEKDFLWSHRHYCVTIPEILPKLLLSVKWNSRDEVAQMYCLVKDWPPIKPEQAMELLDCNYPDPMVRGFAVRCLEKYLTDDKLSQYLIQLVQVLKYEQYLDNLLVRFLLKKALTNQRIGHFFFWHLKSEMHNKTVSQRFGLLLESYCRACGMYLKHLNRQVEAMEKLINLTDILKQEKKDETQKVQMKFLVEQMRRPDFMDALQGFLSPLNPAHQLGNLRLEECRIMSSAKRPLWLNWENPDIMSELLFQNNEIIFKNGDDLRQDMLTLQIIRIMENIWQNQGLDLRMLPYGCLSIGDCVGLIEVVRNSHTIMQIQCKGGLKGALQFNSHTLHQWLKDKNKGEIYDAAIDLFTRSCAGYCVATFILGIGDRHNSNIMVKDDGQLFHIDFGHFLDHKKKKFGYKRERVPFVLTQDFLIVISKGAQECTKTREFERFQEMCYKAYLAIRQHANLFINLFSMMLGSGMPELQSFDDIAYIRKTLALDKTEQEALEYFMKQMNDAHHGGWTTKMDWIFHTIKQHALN
Where a name gives a salt, the structure may show the parent alone.
measure.name: IC50 (nM)

Observe how each entry below is paired with its result.
Cc1ccc(S(=O)(=O)NCCN)cc1-c1cnc(N)c(-n2cncn2)n1 [Example 33, trifluoroacetic acid salt] : 210
Cc1ccc(S(=O)(=O)N2CC(C)(O)C2)cc1-c1cnc(N)c(-n2cncn2)n1 : 1300
Cc1ccc(S(=O)(=O)NCCC(C)(C)O)cc1-c1cnc(N)c(-n2cncn2)n1 : 370
Cc1ccc(S(=O)(=O)NC[C@H]2CCOC2)cc1-c1cnc(N)c(-c2cn(C)nc2C)n1 : 140
Cc1ncc(-c2nc(-c3cc(S(=O)(=O)N4CC(CO)C4)ccc3C)cnc2N)s1 : 90
Cc1ccc(S(=O)(=O)NCCC(O)C(F)(F)F)cc1-c1cnc(N)c(-c2cnn(C)c2)n1 (stereo not shown) : 370
Cc1ccc(S(=O)(=O)NCC2(C)COC2)cc1-c1cnc(N)c(-c2cnn(C)c2)n1 : 680

1. Cc1ccc(S(=O)(=O)N2CCC(F)(F)C2)cc1-c1cnc(N)c(-n2cncn2)n1
2. Cc1cc(-c2nc(-c3cc(S(=O)(=O)NC4CCC(CO)CC4)ccc3C)cnc2N)ccn1 (stereo not shown)
3. Cc1ccc(S(=O)(=O)NC[C@H]2C[C@@H](O)C2)cc1-c1cnc(N)c(-c2nc(C3CC3)no2)n1
IN: Hey, quick one: sort these by IC50, largest value first please. Output spec: a listing of the labels in the requested order.
OUT: 3, 1, 2
(3: 1700 nM, 1: 380 nM, 2: 190 nM)
